# SYSTEM TESTED: PTPN2 (Homo sapiens)
# Construct: expressed in transfected cells; host or cells: 293T (293T.109 HiBiT-PTPN2 line; parental 293T WT from ATCC)
# Sequence (P17706 whole entry, species assumed): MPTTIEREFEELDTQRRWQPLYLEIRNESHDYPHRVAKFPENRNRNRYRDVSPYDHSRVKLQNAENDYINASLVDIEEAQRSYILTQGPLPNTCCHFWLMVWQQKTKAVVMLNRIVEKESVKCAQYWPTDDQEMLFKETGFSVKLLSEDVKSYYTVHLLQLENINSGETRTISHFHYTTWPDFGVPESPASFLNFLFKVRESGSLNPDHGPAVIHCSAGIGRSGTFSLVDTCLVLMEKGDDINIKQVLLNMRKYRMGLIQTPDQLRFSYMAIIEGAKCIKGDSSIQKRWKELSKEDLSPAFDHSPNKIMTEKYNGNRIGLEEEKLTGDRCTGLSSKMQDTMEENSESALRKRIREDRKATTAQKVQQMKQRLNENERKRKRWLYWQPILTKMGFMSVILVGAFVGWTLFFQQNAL
# EXPERIMENT DESCRIPTION: HiBiT-Degradation 293T.109 PTPN2 (Nano-Glo HiBiT Lytic Assay)
# Format: cell-based
# CONDITION DETAILS: 293T.109 (HiBiT-PTPN2) cells, 24.0 hours
Give measured DC50 for each item. Keep answers brief.

Identify DC50 associated with the compound Cn1c(=O)n(C2CCC(=O)NC2=O)c2ccc(C3CCN(CCN4CCC[C@H](COc5ccc6cc(O)c(N7CC(=O)NS7(=O)=O)c(F)c6c5)C4)CC3)cc21 (stereo partly drawn)
0.2 to 1 µM

Identify DC50 associated with the compound Cn1c(=O)n(C2CCC(=O)NC2=O)c2ccc(N3CCC(CC(=O)N4CC=C(c5ccc6cc(O)c(N7CC(=O)NS7(=O)=O)c(F)c6c5)CC4)CC3)cc21 (stereo not drawn)
0.05 to 0.2 µM

Identify DC50 associated with the compound Cn1c(=O)n(C2CCC(=O)NC2=O)c2ccc(N3CCC(O)(CC(=O)N4CC[C@@H](COc5ccc6cc(O)c(N7CC(=O)NS7(=O)=O)c(F)c6c5)C4)CC3)cc21 (stereo partly drawn)
0.05 to 0.2 µM

* * *

# System: PTPN2
# EXPERIMENT DESCRIPTION: HiBiT-Degradation B16F10.4 PTPN2
# Type: cell-based
# CONDITION DETAILS: B16F10.4 cells, 24.0 hours
Give measured DC50 for each item. Keep answers brief.

Identify DC50 associated with the compound O=C1CCC(N2Cc3c(NCC(=O)N4CC(C(=O)NCCOc5ccc6cc(O)c(N7CC(=O)NS7(=O)=O)c(F)c6c5)C4)cccc3C2=O)C(=O)N1 (centres unmarked)
200 to 1000 nM

Identify DC50 associated with the compound Cn1c(=O)n(C2CCC(=O)NC2=O)c2ccc([C@H]3CC[C@@H](CNC(=O)c4ccc5c(F)c(N6CC(=O)NS6(=O)=O)c(O)cc5c4)CC3)cc21 (single isomer, unassigned)
50 to 200 nM

Identify DC50 associated with the compound Cn1c(=O)n(C2CCC(=O)NC2=O)c2ccc(-c3cnn(CC(=O)Nc4ccc5c(F)c(N6CC(=O)NS6(=O)=O)c(O)cc5c4)c3)cc21 (centres unmarked)
10 to 50 nM

Identify DC50 associated with the compound Cn1c(=O)n(C2CCC(=O)NC2=O)c2ccc(N3CCC(CC(=O)N4CCC[C@H](COc5ccc6cc(O)c(N7CC(=O)NS7(=O)=O)c(F)c6c5)C4)CC3)cc21 (some centres unmarked)
200 to 1000 nM

Identify DC50 associated with the compound Cn1c(=O)n(C2CCC(=O)NC2=O)c2ccc(-c3ccc(CNCC(C)(C)CCOc4ccc5cc(O)c(N6CC(=O)NS6(=O)=O)c(F)c5c4)cc3)cc21 (centres unmarked)
200 to 1000 nM

Identify DC50 associated with the compound O=C1CCC(n2c(=O)oc3cc(C4CCN(CC(=O)Nc5ccc6c(F)c(N7CC(=O)NS7(=O)=O)c(O)cc6c5)CC4)ccc32)C(=O)N1 (centres unmarked)
50 to 200 nM

Identify DC50 associated with the compound Cn1c(=O)n(C2CCC(=O)NC2=O)c2ccc(C3CN(CC(=O)Nc4ccc5c(F)c(N6CC(=O)NS6(=O)=O)c(O)cc5c4)C3)cc21 (centres unmarked)
200 to 1000 nM

Identify DC50 associated with the compound O=C(CCOCCn1cc(C2(Nc3cccc4c3C(=O)N(C3CCC(=O)NC3=O)C4=O)CC2)nn1)NCCOc1ccc2cc(O)c(N3CC(=O)NS3(=O)=O)c(F)c2c1 (centres unmarked)
≥ 1000 nM

Identify DC50 associated with the compound O=C(CCCCOc1ccc2cc(O)c(N3CC(=O)NS3(=O)=O)c(F)c2c1)NCCCc1ccc2c3c(cccc13)C(=O)N2C1CCC(=O)NC1=O (centres unmarked)
50 to 200 nM

Identify DC50 associated with the compound O=C1CCC(N2C(=O)c3ccc(NCc4cn(CCC(=O)Nc5ccc6c(F)c(N7CC(=O)NS7(=O)=O)c(O)cc6c5)nn4)cc3C2=O)C(=O)N1 (centres unmarked)
200 to 1000 nM

Identify DC50 associated with the compound Cn1nc(C2CCC(=O)NC2=O)c2ccc(N3CCC(O)(CC(=O)Nc4ccc5c(F)c(N6CC(=O)NS6(=O)=O)c(O)cc5c4)CC3)cc21 (centres unmarked)
10 to 50 nM
